system: CAKI-1; assay: NCI tumour cell line growth inhibition, 48 h
The source made the active and inactive calls. Cut-off read from the data, not from the text of the source: active = GI50 up to about 1.1 µM and inactive = higher. Where a SMILES comes first, the peptide text is derived from it. [ ]: non-standard residue; d: D form. The star is where a group is joined. NMeF = CN[C@@H](Cc1ccccc1)C(=O)O; NMeV = CN[C@H](C(=O)O)C(C)C; Boc = CC(C)(C)OC(=O)*; OBn = c1ccc(CO*)cc1
List of GI50 values.
MEASURED PARAMETER: GI50

[[record]]
molecule = "COC(=O)c1c(C(=O)OC)c2c3ccccc3n(C)c2c2c1c1ccccc1n2C"
measured_parameter = "GI50"
observed_value = "> 100 µM (inactive)"

[[record]]
molecule = "Cc1cc(C)c(C(=O)c2no[n+]([O-])c2C(=O)c2c(C)cc(C)c(Br)c2C)c(C)c1Br"
measured_parameter = "GI50"
observed_value = "11.4 µM (inactive)"

[[record]]
molecule = "COc1cccc(C(=O)C2C(=O)N(C)CCc3ccccc32)c1OC (centres undefined)"
measured_parameter = "GI50"
observed_value = "> 100 µM (inactive)"

[[record]]
molecule = "Cc1cccc(O)c(=O)c1"
measured_parameter = "GI50"
observed_value = "63.1 µM (inactive)"

[[record]]
molecule = "Cn1c2ccccc2n2c3ccccc3c(=S)c(C#N)c12"
measured_parameter = "GI50"
observed_value = "> 100 µM (inactive)"

[[record]]
molecule = "CS(=O)(=O)NNS(=O)(=O)c1ccc(Br)cc1"
measured_parameter = "GI50"
observed_value = "> 100 µM (inactive)"

[[record]]
molecule = "CC(C)[C@@H](C(=O)N1CCC[C@H]1C(=O)OCc1ccccc1)N(C)C(=O)[C@H](C(C)C)N(C)C(=O)[C@H](Cc1ccccc1)N(C)C(=O)[C@H](NC(=O)OC(C)(C)C)C(C)C (Boc-[dV][NMeF][NMeV][NMeV]P-OBn)"
measured_parameter = "GI50"
observed_value = "> 50 µM (inactive)"

[[record]]
molecule = "COc1ccc(/N=N/c2c(C)c(C#N)c(=S)n(C3OC(COC(C)=O)C(OC(C)=O)C(OC(C)=O)C3OC(C)=O)c2C)cc1 (centres undefined)"
measured_parameter = "GI50"
observed_value = "> 100 µM (inactive)"

[[record]]
molecule = "CO/N=C1\\CC(NC(=O)CNC(=O)OC(C)(C)C)c2ccsc21 (centres undefined)"
measured_parameter = "GI50"
observed_value = "> 100 µM (inactive)"


====

tested on: UACC-62; test: NCI tumour cell line growth inhibition, 48 h
Calls of active or inactive are those of the source. Cut-off read from the data, not from the text of the source: active = GI50 up to about 1.1 µM and inactive = higher.
Possible outcomes: T (active), F (inactive)

[[record]]
compound = "C[N+]1(CCC(=O)c2ccco2)CC2CCC(CC2)C1 (configuration not stated)"
label_class = "F"

[[record]]
compound = "O=C(O)/C=C(/CC(=O)O)C(=O)O"
label_class = "F"

[[record]]
compound = "Cc1nc2nn(Cc3ccccc3)cc2c(=O)o1"
label_class = "F"

[[record]]
compound = "O=C1COc2cccnc2N1CCCCO"
label_class = "F"

[[record]]
compound = "CC(=O)OCc1ccc2oc(=O)c(C(=O)Oc3ccccc3)cc2c1"
label_class = "F"

[[record]]
compound = "COP(=O)(OC)C(=O)N1N(c2ccc([N+](=O)[O-])cc2)C(=O)C(C)NC1(NNc1ccc([N+](=O)[O-])cc1)P(=O)(OC)OC (configuration not stated)"
label_class = "F"

[[record]]
compound = "COc1ccccc1C(=O)c1ccc2ccccc2c1"
label_class = "F"

[[record]]
compound = "CSc1c(C#N)c(O)nc(N)c1C(=O)Nc1ccc(Cl)cc1"
label_class = "T"

[[record]]
compound = "Cc1cc2c(C)cc(=O)[nH]c2cc1N"
label_class = "F"

[[record]]
compound = "C=C(Cl)C(Cl)(CCl)CCC(Br)C(C)(C)Br (configuration not stated)"
label_class = "F"

[[record]]
compound = "C[N+](C)=c1[nH]c2ccccc2[nH]1"
label_class = "F"

[[record]]
compound = "OCCN(CCO)c1ccc2c(c1)Cc1ccccc1-2"
label_class = "F"


====

test system: ACHN; assay: NCI tumour cell line growth inhibition, 48 h
Active and inactive are the calls of the source. Cut-off read from the data, not from the text of the source: active = GI50 up to about 1.1 µM and inactive = higher.
Outcome codes: active, inactive

[[record]]
compound = "O=c1oc(C(C(F)(F)F)C(F)(F)F)nc2ccccc12"
label_class = "inactive"

[[record]]
compound = "C[C@]12CC[C@H]3[C@@H](CCC4=CC(=O)CC[C@@]43C)[C@@H]1CC[C@@H]2OC(=O)c1cccc2c(=O)c3ccccc3[nH]c12"
label_class = "inactive"

[[record]]
compound = "C=CCN1CCC(OC(=O)C(O)(/C=C\\CC)C2CCCC2)CC1 (centres undefined)"
label_class = "inactive"

[[record]]
compound = "c1ccc(C2=C(c3ccccc3)P(c3ccccc3)C2)cc1 (centres undefined)"
label_class = "inactive"

[[record]]
compound = "COC(=O)[C@H](Cc1ccccc1)NP(=O)(OCCC#N)OCC1OC(n2cc(C)c(=O)[nH]c2=O)CC1N=[N+]=[N-] (some centres undefined)"
label_class = "inactive"

[[record]]
compound = "CS(=O)(=O)OCCN(CCOS(C)(=O)=O)c1ccc(C=O)cc1"
label_class = "active"

[[record]]
compound = "CNc1ccccc1S(=O)(=O)c1ccccc1[N+](=O)[O-]"
label_class = "inactive"

[[record]]
compound = "N#CCCN(C1=NN(C(=O)CC(=O)Nc2ccc(Cl)cc2)C(c2ccccc2)C1)c1ccc(Cl)cc1 (centres undefined)"
label_class = "inactive"

[[record]]
compound = "CC1(C)CCCC2CC2CCC(C)(C)C1=O (centres undefined)"
label_class = "inactive"


====

tested on: HCT-15
MEASURED PARAMETER: GI50 (µM)

[[record]]
molecule = "O=c1c2cc(Br)cc(Br)c2nc(CCCl)n1-c1ccc(O)c([N+](=O)[O-])c1"
inequality_symbol = "="
observed_value = 19

[[record]]
molecule = "CC(OC(=O)NCn1cc(-c2ccccc2)nn1)c1ccccc1 (stereo not given)"
inequality_symbol = "="
observed_value = 50.6

[[record]]
molecule = "CN(C)Cc1cc(C(=O)/C=C/c2ccccc2)cc(CN(C)C)c1O"
inequality_symbol = "="
observed_value = 30.3

[[record]]
molecule = "Cc1ccc(N(C(=O)Nc2ccccc2)C2=NCC(C)S2)cc1C (stereo not given)"
inequality_symbol = "="
observed_value = 15.4

[[record]]
molecule = "COc1ccc2[nH]c3c([N+](=O)[O-])ccc(Cl)c3c(=O)c2c1"
inequality_symbol = "="
observed_value = 14.2

[[record]]
molecule = "CC(=O)OCC1OC(Sc2nc(-c3ccccc3)c(C#N)c(=O)n2C2OC(COC(C)=O)C(OC(C)=O)C(OC(C)=O)C2OC(C)=O)C(OC(C)=O)C(OC(C)=O)C1OC(C)=O (stereo not given)"
inequality_symbol = ">"
observed_value = 100

[[record]]
molecule = "Oc1cccc(-c2cc(=S)ss2)c1"
inequality_symbol = "="
observed_value = 15.1

[[record]]
molecule = "Nc1nc(=O)[nH]c2c1cnn2Cc1ccccc1"
inequality_symbol = ">"
observed_value = 100

[[record]]
molecule = "CC(=O)OCC1OC(n2cnc3nc(Br)[nH]c(=O)c32)C(OC(C)=O)C1OC(C)=O (stereo not given)"
inequality_symbol = ">"
observed_value = 100

[[record]]
molecule = "CC(=O)C(=N\\Nc1ccc(Cl)cc1)/C(C)=N/c1ccc(C)cc1"
inequality_symbol = "="
observed_value = 45.6


====

test system: CAKI-1; experiment: NCI tumour cell line growth inhibition, 48 h
Active and inactive are the calls of the source. No stated cut-off is given here; in the data, active = GI50 up to about 1.1 µM and inactive = higher.
Labels: 1 (active), -1 (inactive)

[[record]]
compound = "Nc1nc(=O)[nH]c2c1cnn2Cc1ccccc1"
label_class = -1

[[record]]
compound = "Cc1cc(N(CCC#N)CCC#N)ccc1CC1N=C(c2ccccc2)OC1=O (configuration not stated)"
label_class = -1

[[record]]
compound = "NC(=O)C1=C(O)C[C@@H]2CC3Cc4cccc(O)c4C(=O)C3=C(O)[C@]2(O)C1=O (some centres not stated)"
label_class = -1

[[record]]
compound = "Cc1cc2c(C)cc(=O)[nH]c2cc1N"
label_class = -1

[[record]]
compound = "CC(=O)OCC1OC(n2cccnc2=O)C(OC(C)=O)C1OC(C)=O (configuration not stated)"
label_class = -1

[[record]]
compound = "Cc1cccc(C(C)C)c1NC(=O)C(=O)CC(=O)c1sc(Nc2ccccc2Cl)nc1C"
label_class = -1

[[record]]
compound = "O=[N+]([O-])c1cc([As](Br)c2ccc(O)c([N+](=O)[O-])c2)ccc1O"
label_class = -1

[[record]]
compound = "CCC(C#N)(c1ccccc1)N(CCc1ccccc1)C(=O)c1ccccc1 (configuration not stated)"
label_class = -1

[[record]]
compound = "O=C1CC[C@@]23CC(=O)O[C@@H]2CCCC3C1 (some centres not stated)"
label_class = -1

[[record]]
compound = "COc1cc(C2SCC(=O)N2c2ccc(Cl)cc2)cc(I)c1O (configuration not stated)"
label_class = -1

[[record]]
compound = "NC(=S)N/N=C\\c1nccc2ccccc12"
label_class = 1

[[record]]
compound = "O=C1/C(=C/c2ccc3c(c2)OCCO3)CCC/C1=C\\c1ccc2c(c1)OCCO2"
label_class = -1

[[record]]
compound = "O=C(O)/C=C(/CC(=O)O)C(=O)O"
label_class = -1

[[record]]
compound = "C/C(CC(=O)CCCC(=O)Nc1ccc(Cl)cc1Cl)=N/NC(=O)CC#N"
label_class = -1

[[record]]
compound = "O=C(CC(=O)c1ccccc1NC1=Cc2ccccc2C(=O)C1=O)C(=O)NC1=C(Cl)C(=O)c2ccccc2C1=O"
label_class = -1

[[record]]
compound = "O=C(NN1C(=O)C(Cl)C1c1ccc(Cl)cc1)c1c(Cl)c(Cl)c(Cl)c(Cl)c1-c1nc2ccccc2[nH]1 (configuration not stated)"
label_class = -1

[[record]]
compound = "CCOC(=O)/C=C(/C(=O)OCC)n1ccc(=O)n(Cc2cnnn2COCCOC(C)=O)c1=O"
label_class = -1

[[record]]
compound = "CCCCNC(=O)c1cc2c(cc1Cl)Sc1nccn1S2(=O)=O"
label_class = -1

[[record]]
compound = "N=C(N)n1nc2c(c1O)CCCC2"
label_class = -1

[[record]]
compound = "COc1cc(C2c3cc4c(cc3[C@@H](Nc3ccc(N(C)C)cc3)[C@H]3COC(=O)C23)OCO4)cc(OC)c1O (some centres not stated)"
label_class = 1

[[record]]
compound = "C/C(=C\\COP(=O)(O)CP(=O)(O)O)CC/C=C(\\C)CNc1ccccc1"
label_class = -1

[[record]]
compound = "CC(C)(Oc1ccc(C(=O)c2ccc(Cl)cc2)cc1Cl)C(=O)Nc1c(Cl)cccc1Cl"
label_class = -1

